# Method description: yeast display, Sf9 membrane polyspecificity reagent, FACS + sequencing; frameworks hold sequencing errors
Property name: polyreactivity (PSR sort gate)

In the examples that follow, each entry is paired with its recorded polyreactivity (PSR sort gate).
# Residue string, polyreactivity (PSR sort gate)
measured = [
    ("QVQLVESGGGLVQAGGSLRLSCAASGRTFSYYAMGWYRQAPGKERELVARITYRGGRTYYADSVKGRFTISRDNAKNTVYLQMNSLKPEDTAVYYCATTSWRYGYDYWGQGSQVTVSS", "high polyreactivity"),
    ("QVQLVESGGGLVKAGGSLRLSCAASGSIFPYNAMGWYRQAPGKERELVATISSGGSTNYADSVKGRFTISRDNAKNTVYLQMNSMKPEDTAVYYCAADVSVFYYAPNYWGDIEYGYWGQGTQVTVSS", "low polyreactivity"),
    ("QVQLVESGGGLVQAGGSLRLSCAASGIIFDYNAMGWYRQAPGKERELVAAITSTDNTNYADSVKGRFTISRDNAKNTVYLQMNSLKPEDTAVYYCNSVYWLSVVYAMDYWGQGTQVTVSS", "low polyreactivity"),
    ("QVQLVESCGGLVQAGGTLRLRCAASGFTFYPYSMGWYRQAPWKERELVAAITRGGITYYADSVKGRFTISRDYAKNTVYLQMKSLKPEDTAVYYCNAGWYVSYRWYRSDYWGQGTQVTVSS", "high polyreactivity"),
    ("QVQLVESGGGLVPAGGSLRLSCAASGSIFGRNTMGWYRQAPGKERELVAAISSRGTSTYYADSVKGRFTISRDNAKNTVYLQMNSLKPEDTAVYYSAARVYPYNYWGQGTQVTVSS", "high polyreactivity"),
]

Please give the measured polyreactivity (PSR sort gate) for this sequence: `QVQLEESGGGLVQAGGSLRLSCAASGSTIDYYTMGWYRQAPGKERELVAAISSSGGSTYYADSVKGRFTISRDNAKNTVYLQMNSLKPEDTAVYYCNSDSWYPDHFSYYGPYDYWGQGTQVTVSS`
low polyreactivity

Please give the measured polyreactivity (PSR sort gate) for this sequence: `QGQLEESGGGLVQAGGSLRLSCAAAGITFVDYSMGWYRQAPGKEMELVAGINWSGDGTSYADSVKGRFTISRDNAKNTVYLLMNSLKPEDTAVYDCAAYWYYYLMDYWGQGTQVTVSS`
low polyreactivity

Please give the measured polyreactivity (PSR sort gate) for this sequence: `QVQLVESGGGLDQAGGSLRLSCAASGRTFQGYAMGWYRQAPGKERELVAAISRSGGRTYYADSVKGRFTISRDNAKNTVYLQMNSLKPEATAVYFCATDAFRDYGYWGQGTQVTLSS`
high polyreactivity

Please give the measured polyreactivity (PSR sort gate) for this sequence: `QVQLVESGGGFVQAGGSLRLSCAASGFIFGYYAMGWYRQAPGKERELVAAITRSGSRTYYADSVKGRFTISRDNAKNTVYLQMNSLKPEDTAVYYFAKRRYWYYRSRDWFVSGVYWGQGTQVTVSS`
low polyreactivity

Please give the measured polyreactivity (PSR sort gate) for this sequence: `QVQLVESGGGLVQAGGSLRLSCAASGFIFGGDPMGWYRQARGSDRELVAAISSSGGRTYYADSVKRRFTISRDNAKNNVYLQLNSLKPEDTAVYSCAVPRFGSAAKRYYYWGQGTQVTVTS`
high polyreactivity

Please give the measured polyreactivity (PSR sort gate) for this sequence: `QVQLVESGGGLVQAGGSLRLSCAASGITFGRNAMGWSRQAPGKERELVAAISRGGSTNYADSVKGRFTISRDNAKNTVYLQMTRLKPEDTAVYYCATAYRGRAWGYDYWGQGTQVTVSS`
high polyreactivity

Please give the measured polyreactivity (PSR sort gate) for this sequence: `QVQLVESGGGLVQAGGSLRLSCAASGFTLSYYAMGWYRPAPGKEREFVAAIRTSGTSTYYADSVKGRFTISRDNAKNTVYLQMNSLKPEDTAVYYCAVARGSGWYWRSDYWGQGTQVTVSS`
high polyreactivity

Please give the measured polyreactivity (PSR sort gate) for this sequence: `QVQLVESGGGLVQAGGSLRLSCAASGRTFGRYAMGWYRQAPGKERELVAAISYSTDSTYYADSVKGRFTISRDNAKNTVYLQMNSLKPEDTAVYYCAADRLRTSGYKTIYDYWGQGTQVTVSS`
low polyreactivity

The reported measurements were obtained from the nanobody polyreactivity screen of Harvey et al. (2022).
